phosphorylation enrichment values for the sequences below.
target of assay: Fyn (UniProt P06241)
Sequence (P06241 whole entry, looked up): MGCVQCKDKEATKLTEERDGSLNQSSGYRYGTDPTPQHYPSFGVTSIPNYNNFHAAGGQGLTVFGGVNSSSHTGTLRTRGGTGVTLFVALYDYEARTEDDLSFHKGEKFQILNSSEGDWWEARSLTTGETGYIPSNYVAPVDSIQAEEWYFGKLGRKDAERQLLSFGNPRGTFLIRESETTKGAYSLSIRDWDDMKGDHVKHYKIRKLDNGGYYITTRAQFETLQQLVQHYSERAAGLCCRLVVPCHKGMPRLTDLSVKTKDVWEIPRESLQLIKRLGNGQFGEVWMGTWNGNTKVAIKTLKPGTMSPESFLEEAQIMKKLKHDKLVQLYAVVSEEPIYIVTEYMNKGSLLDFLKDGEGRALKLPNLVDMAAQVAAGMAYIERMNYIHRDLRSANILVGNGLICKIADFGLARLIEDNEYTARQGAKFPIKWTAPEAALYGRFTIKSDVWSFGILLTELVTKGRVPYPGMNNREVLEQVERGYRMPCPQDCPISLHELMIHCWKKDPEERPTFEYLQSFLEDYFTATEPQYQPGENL
assay notes: phosphorylation enrichment, bacterial display (enrichment ratio); higher = better substrate or ligand; peptides without Tyr show the background;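 note: 11-residue human phosphosite peptides and single-mutation variants displayed on the E. coli surface, counted by deep sequencing, each peptide's frequency after selection divided by its frequency in the unselected input library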;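 note: frequency after pTyr selection over input frequency; kinase dosed for 20-30% of maximal phosphorylation in three min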
reported metric: phosphorylation enrichment

>  <sequence data>
DVSVVCSEVKT [FCRL4_Y493_Y493C]

>  <reported metric>
phosphorylation enrichment

>  <numeric result>
0.681

$$$$
>  <sequence data>
KDGSGYISAAE [CALM1_Y100_N98S]

>  <reported metric>
phosphorylation enrichment

>  <numeric result>
0.476

$$$$
>  <sequence data>
ALKWGYTVKGI [OAT_Y158_R154L]

>  <reported metric>
phosphorylation enrichment

>  <numeric result>
0.519

$$$$
>  <sequence data>
EFISENCGEII [EZH2_Y641_Y641N]

>  <reported metric>
phosphorylation enrichment

>  <numeric result>
0.581

$$$$
>  <sequence data>
ARMTNYGLPRF [TSPAN12_Y138_YF]

>  <reported metric>
phosphorylation enrichment

>  <numeric result>
0.401

$$$$
>  <sequence data>
VRTSKYRGGGG [HBA1_Y141_L137R]

>  <reported metric>
phosphorylation enrichment

>  <numeric result>
0.426

$$$$
>  <sequence data>
KFADVYVGICL [B3GALNT1_Y269_E266A]

>  <reported metric>
phosphorylation enrichment

>  <numeric result>
0.787

$$$$
>  <sequence data>
NHYKIYNLYAE [PTEN_Y68_C71Y]

>  <reported metric>
phosphorylation enrichment

>  <numeric result>
2.14

$$$$
>  <sequence data>
RNFVRYVQGLK [VWF_Y1400]

>  <reported metric>
phosphorylation enrichment

>  <numeric result>
0.511

$$$$
>  <sequence data>
MPAVTYTPAMR [MEGF10_Y895]

>  <reported metric>
phosphorylation enrichment

>  <numeric result>
0.313

$$$$
>  <sequence data>
MARDIYRASFF [ALK_Y1278_YF]

>  <reported metric>
phosphorylation enrichment

>  <numeric result>
0.566

$$$$
>  <sequence data>
LPPGEYVVVPS [CAPN1_Y494]

>  <reported metric>
phosphorylation enrichment

>  <numeric result>
0.88

$$$$
>  <sequence data>
LVQAEYWHDRI [PPT1_Y185_P189R]

>  <reported metric>
phosphorylation enrichment

>  <numeric result>
0.396

$$$$
>  <sequence data>
APGDAYGDAGF [SYP_Y250_YF]

>  <reported metric>
phosphorylation enrichment

>  <numeric result>
0.494

$$$$
>  <sequence data>
FLRKEYGGLNV [CBR3_Y81]

>  <reported metric>
phosphorylation enrichment

>  <numeric result>
0.45

$$$$
>  <sequence data>
KKMKCYHVGKV [HARS2_Y151_R150C]

>  <reported metric>
phosphorylation enrichment

>  <numeric result>
0.317

$$$$
>  <sequence data>
KGPNVYKKTVN [REV3L_Y1156]

>  <reported metric>
phosphorylation enrichment

>  <numeric result>
0.313

$$$$
>  <sequence data>
EVKAQYEDIAQ [KRT1_Y358]

>  <reported metric>
phosphorylation enrichment

>  <numeric result>
0.556

$$$$
>  <sequence data>
EDGCIYPGTIA [SMN1_Y109_A111G]

>  <reported metric>
phosphorylation enrichment

>  <numeric result>
0.595

$$$$
>  <sequence data>
SENAFYLSPDI [COL6A3_Y2827]

>  <reported metric>
phosphorylation enrichment

>  <numeric result>
0.607

$$$$
>  <sequence data>
SYMVRYNQPRV [GRIN2D_Y736]

>  <reported metric>
phosphorylation enrichment

>  <numeric result>
0.38

$$$$
>  <sequence data>
RVLQLYGCSPS [ASTL_Y279_K277Q]

>  <reported metric>
phosphorylation enrichment

>  <numeric result>
1.54

$$$$
>  <sequence data>
LPKEQYLYTKE [AFG3L2_Y614]

>  <reported metric>
phosphorylation enrichment

>  <numeric result>
0.634

$$$$
>  <sequence data>
HQPGEYIFHAE [FLT3_Y416]

>  <reported metric>
phosphorylation enrichment

>  <numeric result>
0.915

$$$$
>  <sequence data>
SNNYIYKTLGV [FAM83B_Y639]

>  <reported metric>
phosphorylation enrichment

>  <numeric result>
0.467

$$$$
>  <sequence data>
IEDNKYTAREG [HCK_Y411_E410K]

>  <reported metric>
phosphorylation enrichment

>  <numeric result>
0.507

$$$$
>  <sequence data>
ETMNKYDLSGR [MYEF2_Y164]

>  <reported metric>
phosphorylation enrichment

>  <numeric result>
0.434

$$$$
>  <sequence data>
YRQLPYCPSVE [CTNND2_Y508_Q507P]

>  <reported metric>
phosphorylation enrichment

>  <numeric result>
0.647

$$$$
>  <sequence data>
PMWHPYKVDVT [TP53TG5_Y255]

>  <reported metric>
phosphorylation enrichment

>  <numeric result>
1.3

$$$$
>  <sequence data>
SEPDLYYDPRG [PKP1_Y160_C161Y]

>  <reported metric>
phosphorylation enrichment

>  <numeric result>
5.41

$$$$
>  <sequence data>
AEEPIYIIVPA [BMXtide_2014]

>  <reported metric>
phosphorylation enrichment

>  <numeric result>
10.1

$$$$
>  <sequence data>
WEQELYSQLVY [WAS_Y102]

>  <reported metric>
phosphorylation enrichment

>  <numeric result>
9.39

$$$$
>  <sequence data>
MDQAEYQAKIQ [DHX58_Y518_R523Q]

>  <reported metric>
phosphorylation enrichment

>  <numeric result>
0.464

$$$$
>  <sequence data>
LLLLFYVVRYC [MPZ_Y177]

>  <reported metric>
phosphorylation enrichment

>  <numeric result>
0.463

$$$$
>  <sequence data>
NTDETYSIDNE [TUBB2B_Y200_C201S]

>  <reported metric>
phosphorylation enrichment

>  <numeric result>
0.696

$$$$
>  <sequence data>
PDKRIYQFTAA [SKAP2_Y197]

>  <reported metric>
phosphorylation enrichment

>  <numeric result>
0.566

$$$$
>  <sequence data>
ASTDYNKRGDF [PDHA1_Y243_Y243N]

>  <reported metric>
phosphorylation enrichment

>  <numeric result>
0.456

$$$$
>  <sequence data>
SDVWSYGVTMW [ZAP70_Y525]

>  <reported metric>
phosphorylation enrichment

>  <numeric result>
0.477

$$$$
>  <sequence data>
REESTYLPLTS [ICAM3_Y527]

>  <reported metric>
phosphorylation enrichment

>  <numeric result>
1.35

$$$$
>  <sequence data>
QQLDKYQELLD [LMNA_Y359_E358K]

>  <reported metric>
phosphorylation enrichment

>  <numeric result>
0.485

$$$$
>  <sequence data>
YGLQAYTKVKT [ALDH2_Y502_E504K]

>  <reported metric>
phosphorylation enrichment

>  <numeric result>
0.357

$$$$
>  <sequence data>
CPEARYNRSPI [PTAR1_Y42]

>  <reported metric>
phosphorylation enrichment

>  <numeric result>
0.441

$$$$
>  <sequence data>
DISEPYKVYRI [IRF8_Y107]

>  <reported metric>
phosphorylation enrichment

>  <numeric result>
0.445

$$$$
>  <sequence data>
DRLASNLDKVR [KRT10_Y160_Y160N]

>  <reported metric>
phosphorylation enrichment

>  <numeric result>
0.382

$$$$
>  <sequence data>
NSNSDYVDILP [SH2D1B_Y127_V130I]

>  <reported metric>
phosphorylation enrichment

>  <numeric result>
0.514

$$$$
>  <sequence data>
TSKLNYLDPRI [TOP1_Y723]

>  <reported metric>
phosphorylation enrichment

>  <numeric result>
0.371

$$$$

###

target of assay: MERTK (UniProt Q12866)
Sequence (Q12866 whole entry, looked up): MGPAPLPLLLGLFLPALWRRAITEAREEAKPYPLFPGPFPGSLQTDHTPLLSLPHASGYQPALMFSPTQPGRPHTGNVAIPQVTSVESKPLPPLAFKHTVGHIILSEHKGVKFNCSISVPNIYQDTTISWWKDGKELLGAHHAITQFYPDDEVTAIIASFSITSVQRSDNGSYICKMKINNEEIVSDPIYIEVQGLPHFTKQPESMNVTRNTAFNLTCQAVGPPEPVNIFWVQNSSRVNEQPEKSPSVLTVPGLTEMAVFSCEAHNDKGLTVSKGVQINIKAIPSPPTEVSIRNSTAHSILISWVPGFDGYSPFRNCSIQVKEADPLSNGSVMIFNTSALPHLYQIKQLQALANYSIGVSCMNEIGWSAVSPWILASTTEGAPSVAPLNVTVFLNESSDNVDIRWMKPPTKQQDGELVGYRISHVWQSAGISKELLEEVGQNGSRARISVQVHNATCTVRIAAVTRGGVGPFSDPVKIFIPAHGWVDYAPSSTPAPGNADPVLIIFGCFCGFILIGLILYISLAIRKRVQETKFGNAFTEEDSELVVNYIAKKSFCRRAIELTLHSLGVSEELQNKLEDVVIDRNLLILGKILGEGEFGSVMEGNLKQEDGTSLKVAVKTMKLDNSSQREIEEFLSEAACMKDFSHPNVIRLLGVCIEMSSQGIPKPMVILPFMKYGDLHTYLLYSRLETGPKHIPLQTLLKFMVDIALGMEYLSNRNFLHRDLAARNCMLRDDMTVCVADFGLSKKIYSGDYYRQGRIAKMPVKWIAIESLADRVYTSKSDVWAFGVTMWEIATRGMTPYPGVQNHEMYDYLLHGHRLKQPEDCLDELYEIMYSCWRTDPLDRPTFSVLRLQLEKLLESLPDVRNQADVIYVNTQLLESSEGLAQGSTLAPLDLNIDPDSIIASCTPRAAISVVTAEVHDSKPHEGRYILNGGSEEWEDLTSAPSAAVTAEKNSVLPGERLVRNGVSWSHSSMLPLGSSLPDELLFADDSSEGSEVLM
assay notes: phosphorylation enrichment, bacterial display (enrichment ratio); higher = better substrate or ligand; peptides without Tyr show the background
A collection of sequences and their measured phosphorylation enrichment
reported metric: phosphorylation enrichment

>  <sequence data>
KNNDGYTDFAE [MCFD2_Y135_I136T_YF]

>  <target of assay>
MERTK (UniProt Q12866)

>  <reported metric>
phosphorylation enrichment

>  <numeric result>
0.42

$$$$
>  <sequence data>
LLREWYLPDPY [SIX3_Y225_Q227P]

>  <target of assay>
MERTK (UniProt Q12866)

>  <reported metric>
phosphorylation enrichment

>  <numeric result>
0.351

$$$$
>  <sequence data>
EYLQKYKGFKI [SYNE1_Y6953]

>  <target of assay>
MERTK (UniProt Q12866)

>  <reported metric>
phosphorylation enrichment

>  <numeric result>
0.438

$$$$

###

Test system: c-Src
assay notes: phosphorylation enrichment, bacterial display (enrichment ratio); higher = better substrate or ligand; peptides without Tyr show the background
Entry class follows phosphorylation enrichment: group A (below 0.5), group B (0.5 to below 0.6), group C (0.6 or more)

>  <sequence data>
AALVQYFMEHH [PTPN11_Y80_E76A_YF]

>  <assigned category>
group A

$$$$
>  <sequence data>
NFCPGYNNFFN [USH2A_Y467_R464C_YF]

>  <assigned category>
group C

$$$$
>  <sequence data>
ILGTFYETGSI [PAX2_Y73_R71T_YF]

>  <assigned category>
group B

$$$$
>  <sequence data>
RGDCMYAPLLG [AR_Y269]

>  <assigned category>
group C

$$$$
>  <sequence data>
EEDPEYKKKFR [FAM161A_Y278]

>  <assigned category>
group C

$$$$
>  <sequence data>
SYMVRYNQPRV [GRIN2D_Y736]

>  <assigned category>
group A

$$$$
>  <sequence data>
SHLSAYPALEG [CD5_Y465]

>  <assigned category>
group A

$$$$
>  <sequence data>
EACRSYSHVVL [CHST6_Y168]

>  <assigned category>
group B

$$$$
>  <sequence data>
PQGVRYTFTID [DCX_Y103_I104T_YF]

>  <assigned category>
group B

$$$$
>  <sequence data>
RAILDYIASKY [GSTA3_Y74_N73D]

>  <assigned category>
group A

$$$$
>  <sequence data>
RIVEIYSRSLQ [GCH1_Y175_R178S]

>  <assigned category>
group C

$$$$
>  <sequence data>
TLAHKYHGGGG [HBB_Y146_A141T]

>  <assigned category>
group C

$$$$
>  <sequence data>
INPIIYAFVVE [CCR5_Y297_G301V]

>  <assigned category>
group C

$$$$
>  <sequence data>
VKMLEYLGKDV [CASP5_Y74]

>  <assigned category>
group A

$$$$
>  <sequence data>
DSKIRYLSADS [TTF1_Y476_E473K]

>  <assigned category>
group B

$$$$
>  <sequence data>
QSKGIYYVQLE [MGAT4B_Y262]

>  <assigned category>
group C

$$$$
>  <sequence data>
MSRDIYSTDYY [NTRK1_Y676]

>  <assigned category>
group C

$$$$
>  <sequence data>
RDSQIYAVDFE [MRPS34_Y34_L33I_YF]

>  <assigned category>
group C

$$$$
>  <sequence data>
PEADKYRLTFA [FGG_Y300_YF]

>  <assigned category>
group B

$$$$
>  <sequence data>
AGGTRYRFVSQ [UCN3_Y95_R91G_YF]

>  <assigned category>
group A

$$$$
>  <sequence data>
PRARTYCFKQE [KLHDC9_Y175_S171R_YF]

>  <assigned category>
group A

$$$$
>  <sequence data>
RLDRSYSYSYS [PEAR1_Y890]

>  <assigned category>
group A

$$$$
>  <sequence data>
VKPENYWRLDI [VHL_Y175_R176W]

>  <assigned category>
group A

$$$$
>  <sequence data>
FPLAEYTEVKT [ALDH1A3_Y497_A493P_YF]

>  <assigned category>
group B

$$$$
>  <sequence data>
QSHKVYFQHLL [POR_Y604_V605F]

>  <assigned category>
group C

$$$$
>  <sequence data>
VKMLLYTEVTR [GDI1_Y93]

>  <assigned category>
group C

$$$$
>  <sequence data>
EYITRYIDSLK [PSMA7_Y110_A112D]

>  <assigned category>
group A

$$$$
>  <sequence data>
FCGFSYDDIPD [TMEM230_Y112_R108C_YF]

>  <assigned category>
group B

$$$$
>  <sequence data>
SLEKSYKLPDG [ACTA1_Y242_E243K]

>  <assigned category>
group A

$$$$
>  <sequence data>
RVGNMYVRGLS [ABCG8_Y209]

>  <assigned category>
group A

$$$$
>  <sequence data>
KNRDVSSSDFF [USP24_Y2134_Y2134S_YF]

>  <assigned category>
group A

$$$$
>  <sequence data>
AFLEDYFTSTK [SRC_Y522_E527K]

>  <assigned category>
group A

$$$$
>  <sequence data>
CKLFQYFLDHL [ATRX_Y1849_YF]

>  <assigned category>
group B

$$$$
>  <sequence data>
DISEPYKVYRI [IRF8_Y107]

>  <assigned category>
group C

$$$$
>  <sequence data>
SIIKDSFHRGA [GATM_Y203_Y203S]

>  <assigned category>
group A

$$$$
>  <sequence data>
PELINCHQHNS [BTK_Y361_Y361C]

>  <assigned category>
group C

$$$$
>  <sequence data>
KIPGRYFETGS [PAX2_Y72_L69P_YF]

>  <assigned category>
group B

$$$$
>  <sequence data>
LMQAEYWHDPI [PPT1_Y185_V181M]

>  <assigned category>
group B

$$$$
>  <sequence data>
LNPDGYEKAYE [CPXM2_Y427]

>  <assigned category>
group A

$$$$
>  <sequence data>
NKEAIYSGYIR [SMCHD1_Y283]

>  <assigned category>
group C

$$$$
>  <sequence data>
AVPSLYASGRT [ACTA1_Y145_L142P]

>  <assigned category>
group A

$$$$
>  <sequence data>
MKKQKYGRIIM [HSD17B4_Y143]

>  <assigned category>
group A

$$$$
>  <sequence data>
ALLVFYAATIA [SLC20A2_Y187_P184L]

>  <assigned category>
group A

$$$$
>  <sequence data>
LARDMDDKEYY [MET_Y1230_Y1230D]

>  <assigned category>
group B

$$$$
>  <sequence data>
LKLIQYHLIQQ [AKAP4_Y554_T557I]

>  <assigned category>
group B

$$$$
>  <sequence data>
RFWPRYVKVGS [NOG_Y172]

>  <assigned category>
group B

$$$$
